Test system: HOP-18 NSCLC
TEST_NAME: NCI tumour cell line growth inhibition, 48 h
# TGI per record follows
OBSERVED_PROPERTY: TGI

> print(dat)
                                   compound  observed.property  data.value
1  O=C(O)CCC(NC(=O)c1ccc(Nc2nc3ccccc3nc2-c2cccs2)cc1)C(=O)O (stereo not given)                TGI    > 100 µM
2      Nc1ccccc1S(=O)(=O)N(CC(=O)O)c1ccccc1                TGI    > 100 µM
3  COC(=O)c1ccccc1NC(=O)C(=O)Cc1nc2c3c(ccc2[nH]c1=O)C(=O)c1ccccc1C3=O                TGI    > 100 µM
4  OCC1=CC(NC2CC(CO)C(O)C(O)C2O)C(O)C(O)C1O (stereo not given)                TGI    > 100 µM
5  C=C(C)C(=O)OC1C/C(CO)=C\C(O)C/C(C)=C/C2OC(=O)C(=C)C21 (stereo not given)                TGI     83.4 µM
